# Target desc: ATX (autotaxin) (Homo sapiens)
# Construct: purchased Cayman 10803
# Procedure summary: Autotaxin Inhibition Screening Assay (choline release from LPC, LPC-CR)
# Assay type: biochemical
# Conditions: 50 μM compound
Hi there, I'd appreciate the recorded inhibition at 50 µM for every entry that follows.

Note to self: inhibition at 50 µM recorded for O=C(/C=C/c1ccc2c(c1)CCC2NS(=O)(=O)c1cc(C(F)(F)F)cc(C(F)(F)F)c1)NO (stereo not shown) [Compound 18] was < 50%

Note to self: inhibition at 50 µM recorded for O=C(CCCCCNC(=O)c1ccc2c(c1)CC/C(=C\c1cc(C(F)(F)F)cc(C(F)(F)F)c1)C2=O)NO [Compound 79] was > 80%

Note to self: inhibition at 50 µM recorded for CN(C)c1ccc(CCNC2CCc3cc(/C=C/C(=O)NO)ccc32)cc1 (stereo not shown) [Compound 56] was < 50%

Note to self: inhibition at 50 µM recorded for COc1ccc(CCNC2CCc3cc(/C=C/C(=O)NO)ccc32)cc1 (stereo not shown) [Compound 52] was < 50%

Note to self: inhibition at 50 µM recorded for CCN(CC)c1ccc(C(=O)NC2CCc3cc(/C=C/C(=O)Nc4ccc(F)cc4N)ccc32)cc1 (stereo not shown) [Compound 27] was < 50%

Note to self: inhibition at 50 µM recorded for Nc1cc(F)ccc1NC(=O)CCCCCNC(=O)c1ccc2c(c1)CC/C(=C\c1cc(C(F)(F)F)cc(C(F)(F)F)c1)C2=O [Compound 78] was > 80%

Note to self: inhibition at 50 µM recorded for O=C(/C=C/c1ccc2c(c1)CCC2N1CC(=O)N(c2cc(Cl)cc(Cl)c2)C1=O)NO (stereo not shown) [Compound 37] was < 50%

Note to self: inhibition at 50 µM recorded for Cc1[nH]c2ccccc2c1CCNC1CCc2cc(/C=C/C(=O)NO)ccc21 (stereo not shown) [Compound 60] was < 50%

Note to self: inhibition at 50 µM recorded for O=C(/C=C/c1ccc2c(c1)CCC2NCCc1cc(Cl)cc(Cl)c1)NO (stereo not shown) [Compound 55] was < 50%

Note to self: inhibition at 50 µM recorded for Nc1cc(F)ccc1NC(=O)c1ccc(COc2ccc3c(c2)CCC(Cc2cc(C(F)(F)F)cc(C(F)(F)F)c2)C3=O)cc1 (stereo not shown) [Compound 67] was < 50%

Note to self: inhibition at 50 µM recorded for O=C(/C=C/c1ccc2c(c1)CCCC2OCc1cc(C(F)(F)F)cc(C(F)(F)F)c1)NO (stereo not shown) [Compound 36] was < 50%

Note to self: inhibition at 50 µM recorded for COc1ccc2c(c1)CCCC2NC(=O)CCCCCCC(=O)NO (stereo not shown) [Compound 48] was < 50%

Note to self: inhibition at 50 µM recorded for O=C(/C=C/c1ccc2c(c1)CCC2NC(=O)CCCCCCC(=O)NO)Nc1cc(Cl)cc(Cl)c1 (stereo not shown) [Compound 42] was > 80%

Note to self: inhibition at 50 µM recorded for O=C(CCCCCCC(=O)Nc1ccc2c(c1)CCCC2O)NO (stereo not shown) [Compound 2] was < 50%

Note to self: inhibition at 50 µM recorded for COc1ccc2c(c1)CCC2NC(=O)CCCCCCC(=O)NO (stereo not shown) [Compound 44] was < 50%

Note to self: inhibition at 50 µM recorded for O=C(/C=C/c1ccc(COc2ccc3c(c2)CC/C(=C\c2cc(C(F)(F)F)cc(C(F)(F)F)c2)C3=O)cc1)NO [Compound 72] was 50 to 80%

Values from patent US12162820B2
